Parameter: inhibition. Scope: all listed entries.
testedOn: Dual 3',5'-cyclic-AMP and -GMP phosphodiesterase 11A (Homo sapiens) (UniProt Q9HCR9)
Sequence (Q9HCR9 whole entry, looked up): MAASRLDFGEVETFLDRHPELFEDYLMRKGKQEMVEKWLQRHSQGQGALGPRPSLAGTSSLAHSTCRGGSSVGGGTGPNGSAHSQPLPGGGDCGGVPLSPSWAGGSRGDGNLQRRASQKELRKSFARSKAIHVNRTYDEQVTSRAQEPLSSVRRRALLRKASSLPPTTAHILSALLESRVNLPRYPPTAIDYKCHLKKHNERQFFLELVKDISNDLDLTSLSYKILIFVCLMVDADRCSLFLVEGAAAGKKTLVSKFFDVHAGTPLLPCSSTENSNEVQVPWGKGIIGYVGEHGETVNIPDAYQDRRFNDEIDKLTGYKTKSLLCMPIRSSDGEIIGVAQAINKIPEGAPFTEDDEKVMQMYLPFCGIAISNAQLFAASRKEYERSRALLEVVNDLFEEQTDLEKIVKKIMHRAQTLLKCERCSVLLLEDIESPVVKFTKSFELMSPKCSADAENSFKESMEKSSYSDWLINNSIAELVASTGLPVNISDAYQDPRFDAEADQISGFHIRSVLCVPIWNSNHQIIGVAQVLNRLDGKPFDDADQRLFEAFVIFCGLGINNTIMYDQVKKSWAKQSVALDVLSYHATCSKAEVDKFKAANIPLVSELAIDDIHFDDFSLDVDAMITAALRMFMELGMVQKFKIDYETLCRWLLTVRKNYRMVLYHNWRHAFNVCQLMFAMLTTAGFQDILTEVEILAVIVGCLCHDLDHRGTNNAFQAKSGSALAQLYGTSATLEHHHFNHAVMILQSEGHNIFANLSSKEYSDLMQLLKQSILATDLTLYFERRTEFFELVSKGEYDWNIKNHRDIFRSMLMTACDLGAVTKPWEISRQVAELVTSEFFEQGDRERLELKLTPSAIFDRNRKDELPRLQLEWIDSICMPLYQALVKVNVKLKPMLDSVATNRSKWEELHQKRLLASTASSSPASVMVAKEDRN
assay: Inhibition of PDE11A (unknown origin) at 10 uM
resultType: inhibition (%)

| structureNotation | resultType | unitOfMeasurement | valueObserved |
| --- | --- | --- | --- |
| Cc1cc2c3cccnc3cc(CCc3nc(-c4ccccc4)cn3C)n2n1 | inhibition | % | 34 |
| Cc1cc2c3cnccc3cc(CCc3nc(-c4ccccc4)cn3C)n2n1 | inhibition | % | 7 |
| Cc1cc2c3cccnc3cc(CCc3nc4ccccc4n3C)n2n1 | inhibition | % | 43 |
| CCOC(=O)c1cc2c3cccnc3cc(CCc3nc4ccccc4n3C)n2n1 | inhibition | % | 10 |
| Cc1cc2c3cnccc3cc(CCc3nc4ccccc4n3C)n2n1 | inhibition | % | 1 |
| CCOC(=O)c1cc2c3cccnc3cc(CCc3nc(-c4ccccc4)cn3C)n2n1 | inhibition | % | 7 |

This collection of values is drawn from ChEMBL document CHEMBL3352060.
